Assay: Urinary excretion study in rats after oral NS, SF or CNS (LC–MS/MS)
Type: in vivo
Settings: male, Sprague Dawley, rat, urine, oral, oral CNS 110 mg/kg, 12 h
Description: The animal room was set at constant temperature of 20 ± 2 °C with humidity of 50 ± 20% and 12/12 h light/dark cycle. Eighteen male rats were fasted for 12 h before starting the experiment. […] The urine volume was recorded and the dry feces were measured for each collection period. […] The accumulative excretion percentage was calculated for each analyte as follows. […]
measured metric: concentration at 12 h (µg/mL)
All answers are understood in µg/mL, so give the number only.

The molecule listed as CC(C)=CCC[C@](C)(O[C@@H]1O[C@H](CO)[C@@H](O)[C@H](O)[C@H]1O)[C@H]1CC[C@]2(C)[C@@H]1[C@H](O)C[C@@H]1[C@@]3(C)CC[C@H](O)C(C)(C)[C@@H]3[C@@H](O[C@@H]3O[C@H](CO)[C@@H](O)[C@H](O)[C@H]3O[C@@H]3O[C@@H](C)[C@H](O)[C@@H](O)[C@H]3O)C[C@]12C [ginsenoside Re] has a reported concentration at 12 h of 0.035

The molecule listed as CC(C)=CCC[C@](C)(O[C@@H]1O[C@H](CO)[C@@H](O)[C@H](O)[C@H]1O)[C@H]1CC[C@]2(C)[C@@H]1[C@H](O)C[C@@H]1[C@@]3(C)CC[C@H](O)C(C)(C)[C@@H]3[C@@H](O[C@@H]3O[C@H](CO)[C@@H](O)[C@H](O)[C@H]3O)C[C@]12C [ginsenoside Rg1] has a reported concentration at 12 h of 0.789

The molecule listed as CC(C)=CCC[C@](C)(O[C@@H]1O[C@H](CO)[C@@H](O)[C@H](O)[C@H]1O)[C@H]1CC[C@]2(C)[C@@H]1[C@H](O)C[C@@H]1[C@@]3(C)CC[C@H](O[C@@H]4O[C@H](CO)[C@@H](O)[C@H](O)[C@H]4O[C@@H]4O[C@H](CO)[C@@H](O)[C@H](O)[C@H]4O)C(C)(C)[C@@H]3CC[C@]12C [ginsenoside Rd] has a reported concentration at 12 h of 0.053

The molecule listed as CC(C)=CCC[C@](C)(O[C@@H]1O[C@H](CO[C@@H]2O[C@H](CO)[C@@H](O)[C@H](O)[C@H]2O)[C@@H](O)[C@H](O)[C@H]1O)[C@H]1CC[C@]2(C)[C@@H]1[C@H](O)C[C@@H]1[C@@]3(C)CC[C@H](O[C@@H]4O[C@H](CO)[C@@H](O)[C@H](O)[C@H]4O[C@@H]4O[C@H](CO)[C@@H](O)[C@H](O)[C@H]4O)C(C)(C)[C@@H]3CC[C@]12C [ginsenoside Rb1] has a reported concentration at 12 h of 0.12

---

Can you tell me concentration at 72 h for the items I'm about to list?
assay: Fecal excretion study in rats after oral NS, SF or CNS (LC–MS/MS); type: in vivo; details: male, Sprague Dawley; rat feces, oral CNS 110 mg/kg, 72 h
Note to self: number, then unit, no commentary.

The compound listed as CC(C)=CCC[C@](C)(O[C@@H]1O[C@H](CO)[C@@H](O)[C@H](O)[C@H]1O)[C@H]1CC[C@]2(C)[C@@H]1[C@H](O)C[C@@H]1[C@@]3(C)CC[C@H](O[C@@H]4O[C@H](CO)[C@@H](O)[C@H](O)[C@H]4O[C@@H]4O[C@H](CO)[C@@H](O)[C@H](O)[C@H]4O)C(C)(C)[C@@H]3CC[C@]12C [ginsenoside Rd] has a reported concentration at 72 h of 153 ng/mL

The compound listed as CC(C)=CCC[C@](C)(O[C@@H]1O[C@H](CO)[C@@H](O)[C@H](O)[C@H]1O)[C@H]1CC[C@]2(C)[C@@H]1[C@H](O)C[C@@H]1[C@@]3(C)CC[C@H](O)C(C)(C)[C@@H]3[C@@H](O[C@@H]3O[C@H](CO)[C@@H](O)[C@H](O)[C@H]3O[C@@H]3O[C@@H](C)[C@H](O)[C@@H](O)[C@H]3O)C[C@]12C [ginsenoside Re] has a reported concentration at 72 h of 168 ng/mL

The compound listed as CC(C)=CCC[C@](C)(O[C@@H]1O[C@H](CO)[C@@H](O)[C@H](O)[C@H]1O)[C@H]1CC[C@]2(C)[C@@H]1[C@H](O)C[C@@H]1[C@@]3(C)CC[C@H](O)C(C)(C)[C@@H]3[C@@H](O[C@@H]3O[C@H](CO)[C@@H](O)[C@H](O)[C@H]3O)C[C@]12C [ginsenoside Rg1] has a reported concentration at 72 h of 324 ng/mL

The compound listed as CC(C)=CCC[C@](C)(O[C@@H]1O[C@H](CO[C@@H]2O[C@H](CO)[C@@H](O)[C@H](O)[C@H]2O)[C@@H](O)[C@H](O)[C@H]1O)[C@H]1CC[C@]2(C)[C@@H]1[C@H](O)C[C@@H]1[C@@]3(C)CC[C@H](O[C@@H]4O[C@H](CO)[C@@H](O)[C@H](O)[C@H]4O[C@@H]4O[C@H](CO)[C@@H](O)[C@H](O)[C@H]4O)C(C)(C)[C@@H]3CC[C@]12C [ginsenoside Rb1] has a reported concentration at 72 h of 455 ng/mL

The origin of these recorded values is paper PMC6321168.
